- system_tested: AP-2 complex subunit beta (Homo sapiens) (UniProt P63010)
- Sequence (P63010 whole entry, looked up, one chain of several): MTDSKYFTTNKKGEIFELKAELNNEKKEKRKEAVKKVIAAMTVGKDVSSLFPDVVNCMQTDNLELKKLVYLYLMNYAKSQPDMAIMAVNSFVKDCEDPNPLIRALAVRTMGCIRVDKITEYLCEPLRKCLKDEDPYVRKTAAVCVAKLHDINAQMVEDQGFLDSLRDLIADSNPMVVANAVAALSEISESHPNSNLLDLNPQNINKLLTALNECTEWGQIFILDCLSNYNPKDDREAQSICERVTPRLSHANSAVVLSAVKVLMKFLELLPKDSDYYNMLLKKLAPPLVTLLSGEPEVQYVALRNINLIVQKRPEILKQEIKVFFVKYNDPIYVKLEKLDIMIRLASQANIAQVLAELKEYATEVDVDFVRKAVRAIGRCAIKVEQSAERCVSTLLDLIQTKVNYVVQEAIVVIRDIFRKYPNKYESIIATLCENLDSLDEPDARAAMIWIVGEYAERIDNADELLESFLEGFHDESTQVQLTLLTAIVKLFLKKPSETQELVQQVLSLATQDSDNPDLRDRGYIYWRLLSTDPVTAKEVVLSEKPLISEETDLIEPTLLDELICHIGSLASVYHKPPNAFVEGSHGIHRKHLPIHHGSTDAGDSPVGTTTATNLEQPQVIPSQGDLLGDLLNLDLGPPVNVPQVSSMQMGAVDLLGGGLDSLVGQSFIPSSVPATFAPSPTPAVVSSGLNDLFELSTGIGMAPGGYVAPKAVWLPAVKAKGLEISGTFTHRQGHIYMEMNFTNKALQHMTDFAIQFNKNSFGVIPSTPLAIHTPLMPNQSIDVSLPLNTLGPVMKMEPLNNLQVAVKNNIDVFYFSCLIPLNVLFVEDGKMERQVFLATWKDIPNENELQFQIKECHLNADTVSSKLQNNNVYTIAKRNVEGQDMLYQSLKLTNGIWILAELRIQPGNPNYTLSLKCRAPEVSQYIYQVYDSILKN
- measurement_description: inhibitors of arrestin peptide binding to AP2, pilot screen, biochemical, validation set, GST-AP2 beads, flow cytometry (AID 504541);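 further: AP2 carries R879A mutation and is captured from E. coli lysate; bead-bound FITC arrestin peptide fluorescence measuring arrestin peptide binding to AP2; 0% = DMSO wells and 100% = excess unlabeled arrestin peptide control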
- recorded_conditions: FITC arrestin peptide, at 10 µM, stronger effect = higher value, AP2 beta2 appendage fragment, R879A mutant
Entries annotated with measured inhibition
experimental_endpoint: inhibition (%)

- compound: "CCOC(=O)c1cccc(C(=O)OCC)n1"
  endpoint_result: 5.21
- compound: "CCc1cc(=O)oc2cc(C)c(CN3CCCC(C)C3)c(O)c12 (stereo not given)"
  endpoint_result: 26.7
- compound: "O=C(Nc1cccc(Cl)c1)N1CCN2C(=O)c3ccccc3C12c1ccccc1 (stereo not given)"
  endpoint_result: 0.48
- compound: "CCOC(=O)c1oc2cc(OCC(N)=O)ccc2c(=O)c1-c1ccc(OC)c(OC)c1"
  endpoint_result: 2.96
- compound: "CC(=O)Oc1ccc(C2OC(=O)c3ccccc3N2C(C)=O)cc1 (stereo not given)"
  endpoint_result: 0.53
- compound: "CC(=O)C1=C(NC(=O)c2ccc(C(F)(F)F)cc2)C[C@@H]2[C@H]1C2(C)C"
  endpoint_result: 6.52
- compound: "N=C(N)c1ccc(OCCCCCOc2ccc(C(=N)N)cc2)cc1"
  endpoint_result: -15.3
- compound: "Cc1ccccc1C(OCCN(C)C)c1ccccc1 (stereo not given)"
  endpoint_result: -8.71
- compound: "COc1ccc2cc[nH]c2c1"
  endpoint_result: -3.08
- compound: "Cc1cccc(C)c1NS(=O)(=O)c1ccc(NC(=O)c2ccc(Cl)c([N+](=O)[O-])c2)cc1"
  endpoint_result: 4.81
- compound: "COc1cccc(OC)c1C(=O)NCCSC1CCCCC1"
  endpoint_result: -3.95
- compound: "Cc1ccc(C(=O)N2CC3(C(C)C)CN(C(=O)c4ccc(C)cc4)CC(C(C)C)(C2)C3=O)cc1"
  endpoint_result: 14.1
- compound: "O=C(Nc1ccccc1)OCC1CCCN2CCCCC12 (stereo not given)"
  endpoint_result: -10.6
- compound: "CC1=CC2(O)OCCN(CCO)C2=CC1=O (stereo not given)"
  endpoint_result: -3.8
- compound: "O=C(O)c1cc(-c2ccccc2)nc2ccccc12"
  endpoint_result: 27.6
- compound: "COc1ccc(/C=C\\C(=O)c2c(O)ccc3c(C)cc(=O)oc23)cc1OC"
  endpoint_result: 60.6
- compound: "COc1ccc(-c2onc(C)c2-c2ccc(C(=O)OC(C)C)o2)c(O)c1"
  endpoint_result: -6.7
- compound: "CCN1CCN(C(=O)N[C@@H](C(=O)N[C@@H]2C(=O)N3[C@@H]2SC(C)(C)[C@@H]3C(=O)O)c2ccccc2)C(=O)C1=O"
  endpoint_result: 3.29
- compound: "Cc1cccc(N(C)C(=S)Oc2ccc3ccccc3c2)c1"
  endpoint_result: -3.34
- compound: "CN(Cc1ccccc1)CC(O)COc1ccc(CNCc2cccnc2)cc1 (stereo not given)"
  endpoint_result: -7.34

----------
- measurement_description: LAP4-GFP expression modulators in yeast, confirmation, cell-based, cherry picks, flow cytometry, mother/daughter gates (AID 2271);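 further: ratio of sample to DMSO plate mean so 100% equals DMSO level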
- recorded_conditions: S. cerevisiae LAP4-GFP strain, 3 h, measured here: daughter cell gate response, at 10 µM, stronger effect = higher value, 100 means same as DMSO control
Entries annotated with measured GFP response relative to DMSO

- molecule: "COc1ccc(Br)cc1/C=N/NC(=O)Cn1nnnc1N"
  GFP response relative to DMSO (%): 97.6
- molecule: "COc1cc(/C=C2\\C(=O)ON=C2c2ccc(Cl)cc2)ccc1O"
  GFP response relative to DMSO (%): 122
- molecule: "Oc1ccc(Br)cc1/C=N/Nc1ccccn1"
  GFP response relative to DMSO (%): 222
- molecule: "C=CCn1c(=O)c(C(=O)Nc2ccccc2C(=O)OCC)c(O)c2ccccc21"
  GFP response relative to DMSO (%): 86.4
- molecule: "Cc1ccc(C(=O)c2nocc2C(=O)c2cccs2)cc1"
  GFP response relative to DMSO (%): 111
- molecule: "Cc1cc(C(=O)Nc2nc(-c3ccccn3)cs2)ccc1[N+](=O)[O-]"
  GFP response relative to DMSO (%): 149
- molecule: "Cn1ncc2c(O/N=C(\\N)c3ccc(C(C)(C)C)cc3)ncnc21"
  GFP response relative to DMSO (%): 96.6
- molecule: "O=C(CCS(=O)(=O)Cc1ccccc1F)NCCc1ccc(Cl)cc1"
  GFP response relative to DMSO (%): 99
- molecule: "Cc1cc(=O)n2c3c(sc2n1)C(=O)N(Cc1ccccc1)C3=O"
  GFP response relative to DMSO (%): 140
- molecule: "CCOC(=O)c1ccc(NC(=O)CCc2nc(-c3ccccc3Cl)no2)cc1"
  GFP response relative to DMSO (%): 101
- molecule: "Nc1cccnc1S(=O)(=O)c1ccccc1"
  GFP response relative to DMSO (%): 94.1
- molecule: "CC(=O)Oc1ccc(N2C(=O)C3C4C=CC(O4)C3C2=O)cc1 (centres undefined)"
  GFP response relative to DMSO (%): 101
- molecule: "CCOC(=O)Cc1csc(NC(=O)c2sc3nc4c(C)cc(C)cc4cc3c2N)n1"
  GFP response relative to DMSO (%): 89.5
- molecule: "COc1ccc(C(=O)/C=C2/C(=O)Nc3ccccc32)c(OC)c1"
  GFP response relative to DMSO (%): 123
- molecule: "CCCCN(CC)S(=O)(=O)c1ccc(C(=O)Nc2nnc(-c3ccccc3Cl)o2)cc1"
  GFP response relative to DMSO (%): 99.2
- molecule: "O=C1C(CSCc2ccccc2)NC(=S)N1c1ccccc1 (centres undefined)"
  GFP response relative to DMSO (%): 120
- molecule: "CCc1nnc(NC(=O)c2nc(S(=O)(=O)Cc3cccc(C)c3)ncc2Cl)s1"
  GFP response relative to DMSO (%): 102
- molecule: "Cc1ccccc1N1C(=O)CC(Sc2nnc(-c3ccccc3)o2)C1=O (centres undefined)"
  GFP response relative to DMSO (%): 101
- molecule: "COc1cccc(/C=N/Nc2nc(-c3cccnc3)nc3ccccc23)c1"
  GFP response relative to DMSO (%): 101
- molecule: "CCc1c2ccccc2nn1-c1ccccc1C(=O)C(C)=O"
  GFP response relative to DMSO (%): 101
- molecule: "CCOC(=O)CSC1=NC(=O)/C(=C/c2ccc(Br)cc2)S1"
  GFP response relative to DMSO (%): 136
- molecule: "Cc1cc(NCCN2CCOCC2)n2nc(C)c(-c3ccc(Cl)cc3)c2n1"
  GFP response relative to DMSO (%): 101
- molecule: "Nc1cccc(C(=O)Nc2ccccc2Cl)c1"
  GFP response relative to DMSO (%): 97.6
- molecule: "C=CCOc1ccc(/C=C2\\N=C(C)OC2=O)cc1OC"
  GFP response relative to DMSO (%): 136

----------
- measurement_description: modulators of CIT2-GFP expression in yeast, confirmation, S. cerevisiae, GFP fusion, cherry picks, mother/daughter gates (AID 2274)
- recorded_conditions: S. cerevisiae CIT2-GFP strain, flow cytometry, 3 h; measured here: mother cell gate; at 10 µM; stronger effect = higher value

- compound: "O=C(O)c1cccc(S(=O)(=O)N2Cc3ccccc3C2)c1"
  GFP response, % of DMSO, %: 100
- compound: "CCOC(=O)Cc1csc(NC(=O)CCCCCN2C(=O)c3cccc4cccc(c34)C2=O)n1"
  GFP response, % of DMSO, %: 101
- compound: "O=[N+]([O-])c1ccc(Sc2ccc(Cl)c(Cl)c2)nc1"
  GFP response, % of DMSO, %: 99.3
- compound: "O=C(Nc1cc(Sc2ccccn2)cc([N+](=O)[O-])c1)c1cccc(F)c1"
  GFP response, % of DMSO, %: 94.9
- compound: "NC1=NC(=O)C(CC(=O)c2ccc(Cl)cc2)S1 (centres undefined)"
  GFP response, % of DMSO, %: 94.5
- compound: "Cc1cccc(NC(=O)c2ccc([N+](=O)[O-])o2)c1"
  GFP response, % of DMSO, %: 101
- compound: "COc1ccc(OC)c(C2CC(c3c(-c4ccccc4)c4cc(Cl)ccc4[nH]c3=O)=NN2S(C)(=O)=O)c1 (centres undefined)"
  GFP response, % of DMSO, %: 97.7
- compound: "Cc1cc(=O)oc2c(C(=O)/C=C\\c3cccs3)c(O)ccc12"
  GFP response, % of DMSO, %: 91.9
- compound: "CS(=O)(=O)N1N=C(c2ccc3nccnc3c2)CC1c1ccccc1 (centres undefined)"
  GFP response, % of DMSO, %: 102
- compound: "Cc1ccc(NN2C(=O)C=C(c3ccc(Cl)cc3)C2=O)cc1"
  GFP response, % of DMSO, %: 83.1
- compound: "Cc1cc(N)ccc1NC(=O)c1ccccc1"
  GFP response, % of DMSO, %: 101
- compound: "CCOc1ccc(N2C(=O)CC(SCCN)C2=O)cc1 (centres undefined)"
  GFP response, % of DMSO, %: 98.5
- compound: "COc1ccc(N2CCN(C(=O)c3ccc(C)cc3Cl)CC2)cc1"
  GFP response, % of DMSO, %: 92.3
- compound: "COc1cccc(N=Nc2ccc(O)c3ncccc23)c1"
  GFP response, % of DMSO, %: 99.7
